Exercise: state measured pIC50 for each of the compounds provided.
Biological target: enzyme FAAH (Fatty Acid Amido Hydrolase) (Mus musculus, UniProt O08914)
Sequence (O08914 1-579): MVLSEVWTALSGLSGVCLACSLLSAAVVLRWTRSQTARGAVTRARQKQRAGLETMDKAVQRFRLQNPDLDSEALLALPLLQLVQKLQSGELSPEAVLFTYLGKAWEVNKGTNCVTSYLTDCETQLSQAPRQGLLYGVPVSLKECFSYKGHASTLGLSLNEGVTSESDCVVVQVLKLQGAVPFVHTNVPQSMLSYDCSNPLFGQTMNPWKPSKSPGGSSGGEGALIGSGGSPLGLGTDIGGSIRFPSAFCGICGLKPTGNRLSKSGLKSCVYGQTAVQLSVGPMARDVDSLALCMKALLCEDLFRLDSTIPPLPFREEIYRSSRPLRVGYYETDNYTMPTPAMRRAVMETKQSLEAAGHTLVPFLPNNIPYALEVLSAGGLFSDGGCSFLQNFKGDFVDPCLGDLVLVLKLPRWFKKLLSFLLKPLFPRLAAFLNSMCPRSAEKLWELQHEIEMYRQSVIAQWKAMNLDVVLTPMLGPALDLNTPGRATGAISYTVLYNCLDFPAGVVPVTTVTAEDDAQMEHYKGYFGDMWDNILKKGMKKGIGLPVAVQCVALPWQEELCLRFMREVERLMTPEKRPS
Give bare numbers, as −log10 of the molar value.

Smi | Test Readout | Measurement
CNC(=O)COC(=O)N1CCN(c2ccc(-c3cccc(C(F)(F)F)c3)cc2)CC1 | pIC50 | 6.72

Switching to the query record.
Query: Form field - read-out: pIC50; system: enzyme FAAH (Fatty Acid Amido Hydrolase) (Mus musculus, UniProt O08914); submitted item: CNC(=O)COC(=O)N1CCN(c2ccc(-c3ccc(OC(F)(F)F)cc3)cn2)CC1
Result: 7.92
